B1: library; numbered along this chain (parent)
chain: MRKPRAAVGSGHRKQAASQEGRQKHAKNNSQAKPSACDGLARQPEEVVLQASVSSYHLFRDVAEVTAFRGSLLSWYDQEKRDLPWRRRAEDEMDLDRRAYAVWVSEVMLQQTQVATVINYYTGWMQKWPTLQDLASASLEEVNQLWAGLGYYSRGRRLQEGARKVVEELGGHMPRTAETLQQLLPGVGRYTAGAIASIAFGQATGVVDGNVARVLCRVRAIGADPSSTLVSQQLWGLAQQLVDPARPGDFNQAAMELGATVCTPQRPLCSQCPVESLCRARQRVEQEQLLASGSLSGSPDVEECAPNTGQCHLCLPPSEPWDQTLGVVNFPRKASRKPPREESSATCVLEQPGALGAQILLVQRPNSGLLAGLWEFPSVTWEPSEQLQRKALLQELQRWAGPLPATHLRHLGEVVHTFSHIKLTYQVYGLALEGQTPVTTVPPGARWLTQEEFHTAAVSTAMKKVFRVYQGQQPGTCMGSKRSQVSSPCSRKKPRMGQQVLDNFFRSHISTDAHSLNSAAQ

# Variants of: B1
# TEST NAME: 8OG:A repair function score (normalized; synonymous = 0, nonsense = -1) (normalized log-likelihood score); higher = more repair activity (WT-like);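 further: cells sorted at 72 h after reporter transfection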
# CONDITION DETAILS: with 8OG:A DNA repair reporter (GFP) in HEK-293 MUTYH KO cells
Assign class by 8OG:A repair function score: not lower than -0.1 means label 1; lower than -0.1 means label 0.

In [3]: df
Out[3]:
    variant_annotation    label
 0               V187L  label 0
 1               H514M  label 1
 2               L411P  label 0
 3               S343C  label 1
 4               P365N  label 1
 5               N366Q  label 1
 6               R364W  label 0
 7               L290R  label 1
 8               G471V  label 1
 9               G193E  label 0
10               G148T  label 0
11               T228D  label 0
12               S138N  label 0
13               L149R  label 0
14               S510G  label 1
15               G123Y  label 0
16               K390R  label 0
17               F504G  label 1
18                P84H  label 0
19               A137T  label 0
20               T440E  label 1
21               L289K  label 1
22               V441S  label 1
23               P404L  label 1
24               P225N  label 0
25                V65M  label 0
26               Q472T  label 1
27                R81D  label 0
28               K464A  label 0
29                W75I  label 0
30               T436L  label 1
31               H514D  label 1
32               G497S  label 1
33               S510K  label 1
34               G401H  label 0
35               Y428K  label 0
36                E45P  label 1
37                S54M  label 1
38               A196L  label 0
39               A192I  label 0
40               G209E  label 0
41               A212R  label 1
42                G39E  label 1
43               E140D  label 1
44               P494F  label 1
45               A519F  label 1
46               K390A  label 0
47               C489E  label 1
48                P34C  label 1
49               W128E  label 0
50               M462D  label 0
51               R163K  label 0
52               L313S  label 0
53               Q363Y  label 0
54               L393W  label 0
55               T440S  label 1
56               K493L  label 1
57                Q78M  label 0
58               S231V  label 1
59               A445N  label 0
60               Q286F  label 1
61                Q78W  label 1
62                A89E  label 1
63               R219I  label 0
64               E178I  label 1
65                R87H  label 1
66               L158N  label 0
67               W146P  label 0
68               Q397G  label 0
69                W75V  label 0
70               V348L  label 0
71                V47Q  label 1
72               S227C  label 1
73               R246T  label 0
74               H454N  label 1
75               T440C  label 1
76               V211Q  label 0
77               W374A  label 0
78               Q144C  label 1
79               G444D  label 0
80               A203L  label 1
81               G205A  label 0
82               Y469F  label 1
83               V261H  label 0
84               I118H  label 1
85               G170P  label 0
86                G39V  label 1
87               V107K  label 0
88               V117T  label 1
89               R156A  label 0
